target_desc: D(1A) dopamine receptor (Rattus norvegicus, UniProt P18901)
Sequence (P18901 whole entry): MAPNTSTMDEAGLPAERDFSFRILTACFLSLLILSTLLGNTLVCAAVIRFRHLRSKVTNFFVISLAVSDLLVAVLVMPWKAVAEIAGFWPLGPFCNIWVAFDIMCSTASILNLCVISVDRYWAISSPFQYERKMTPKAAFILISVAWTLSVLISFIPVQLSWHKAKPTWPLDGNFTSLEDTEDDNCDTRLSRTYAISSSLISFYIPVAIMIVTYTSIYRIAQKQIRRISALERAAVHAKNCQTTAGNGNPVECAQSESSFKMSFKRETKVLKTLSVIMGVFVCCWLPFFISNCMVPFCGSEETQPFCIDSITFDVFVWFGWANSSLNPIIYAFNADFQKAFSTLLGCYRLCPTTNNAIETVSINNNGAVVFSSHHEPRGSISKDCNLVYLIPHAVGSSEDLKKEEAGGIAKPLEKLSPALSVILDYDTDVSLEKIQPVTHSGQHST
procedure_text: Binding affinity to dopamine D1 receptor high binding site by radioligand displacement assay

{"columns": ["smiles_entry", "Ki"],
 "data": [
  ["CCN1CCc2cc(OCCCF)cc3c2[C@H]1Cc1cccc(O)c1-3", "Not Active"],
  ["CCCN1CCc2cccc3c2[C@H]1Cc1cccc(O)c1-3", "Not Active"],
  ["CCCN1CCc2cc(OCCCF)cc3c2[C@H]1Cc1cccc(O)c1-3", "Not Active"],
  ["CN1CCc2cc(OCCF)cc3c2[C@H]1Cc1ccc(O)c(O)c1-3", "Not Active"],
  ["CCCN1CCc2cc(OCCF)cc3c2[C@H]1Cc1ccc(O)c(O)c1-3", "Not Active"],
  ["CCCN1CCc2cc(OCCCF)cc3c2[C@H]1Cc1ccc(O)c(O)c1-3", "Not Active"],
  ["Oc1cccc2c1-c1cccc3c1[C@@H](C2)N(CCCF)CC3", "Not Active"],
  ["CN1CCc2cc(OCCF)cc3c2[C@H]1Cc1cccc(O)c1-3", "Not Active"],
  ["CN1CCc2cc(OCCCF)cc3c2[C@H]1Cc1ccc(O)c(O)c1-3", "Not Active"],
  ["CCN1CCc2cc(OCCF)cc3c2[C@H]1Cc1ccc(O)c(O)c1-3", "Not Active"]
]}

----------
target_desc: D(3) dopamine receptor (Homo sapiens)
Sequence (P35462 whole entry): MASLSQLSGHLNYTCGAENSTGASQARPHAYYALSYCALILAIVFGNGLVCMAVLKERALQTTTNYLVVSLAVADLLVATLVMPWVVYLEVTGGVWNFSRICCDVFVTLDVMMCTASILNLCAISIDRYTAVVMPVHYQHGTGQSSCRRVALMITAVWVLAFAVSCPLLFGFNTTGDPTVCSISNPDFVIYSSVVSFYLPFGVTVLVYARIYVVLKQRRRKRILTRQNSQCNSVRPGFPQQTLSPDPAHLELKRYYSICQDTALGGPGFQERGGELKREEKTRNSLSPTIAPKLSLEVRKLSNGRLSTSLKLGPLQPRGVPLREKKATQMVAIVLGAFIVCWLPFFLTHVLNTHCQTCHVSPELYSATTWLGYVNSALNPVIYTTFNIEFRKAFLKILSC
procedure_text: Displacement of [3H]domperidone from human dopamine D3 receptor expressed in human HEK293 cells by scintillation counting
Assay type: cell-based

{"columns": ["smiles_entry", "Ki (nM)"],
 "data": [
  ["CCCN1CCc2cc(OC)cc3c2[C@H]1Cc1ccc(O)c(O)c1-3", 1.02]
]}

----------
target_desc: D(3) dopamine receptor (Homo sapiens)
procedure_text: Displacement of [3H]domperidone from human cloned dopamine D3 receptor high binding site expressed in mouse CCL1-3 cells by scintillation counting
Type: cell-based
pKi: −log10 of the molar value.
Collected pKi values appear next to each entry.

{"columns": ["smiles_entry", "pKi"],
 "data": [
  ["CCCN1CCc2cc(OCCF)cc3c2[C@H]1Cc1ccc(O)c(O)c1-3", 8.72],
  ["CCCN1CCc2cc(OCCCF)cc3c2[C@H]1Cc1ccc(O)c(O)c1-3", 8.96],
  ["CCCN1CCc2cc(F)cc3c2[C@H]1Cc1ccc(O)c(O)c1-3", 8.42],
  ["CCCN1CCc2cc(OC)cc3c2[C@H]1Cc1cccc(O)c1-3", 6.89],
  ["CCN1CCc2cc(OCCCF)cc3c2[C@H]1Cc1ccc(O)c(O)c1-3", 6.64],
  ["CCN1CCc2cc(OCCF)cc3c2[C@H]1Cc1ccc(O)c(O)c1-3", 6.60],
  ["CCCN1CCc2cccc3c2[C@H]1Cc1cccc(O)c1-3", 8.92]
]}

----------
target_desc: D(1A) dopamine receptor (Rattus norvegicus)
procedure_text: Binding affinity to dopamine D1 receptor low binding site by radioligand displacement assay
pKi: −log10 of the molar value.

{"columns": ["smiles_entry", "pKi"],
 "data": [
  ["CCN1CCc2cc(OCCF)cc3c2[C@H]1Cc1cccc(O)c1-3", "< 5.30"],
  ["CCCN1CCc2cc(OCCCF)cc3c2[C@H]1Cc1cccc(O)c1-3", "< 5.30"],
  ["CCN1CCc2cc(OCCCF)cc3c2[C@H]1Cc1cccc(O)c1-3", "< 5.30"]
]}

Entry source: ChEMBL document CHEMBL1671824
